protocol_details: clinical
setup_conditions: both, human, in vivo, po, 3 mg
reported_endpoint: Cmax (ng/mL)

{"compound": "CC(=O)CC(c1ccccc1)c1c(O)c2ccccc2oc1=O (stereo not shown)", "reported_endpoint": "Cmax", "value_measured": 403}
